Test: Cmax in Sprague-Dawley rat at 3 mg/kg, iv measured after 48 hrs by LC-MS/MS analysis
Type: ADME, organism-based
Design: route intravenous, dose 3 mg/kg, time 48 hrs
Experimental Context: in vivo

{"columns": ["Chemical Structure", "Cmax / ng/mL"],
 "data": [
  ["CC#CCn1c(N2CCC[C@@H](N)C2)cc(=O)n(Cc2cc(C(=O)O)ccc2Cl)c1=O", 25700]
]}

---

Test: Half life in Sprague-Dawley rat at 10 mg/kg, po measured after 48 hrs by LC-MS/MS analysis
Type: ADME, organism-based
Experimental Context: in vivo
Readout Kind: half-life (h)

{"columns": ["Chemical Structure", "Readout Kind", "Unit Spec", "Data Value"],
 "data": [
  ["CC#CCn1c(N2CCC[C@@H](N)C2)cc(=O)n(Cc2cc(C(=O)OC)ccc2Cl)c1=O", "half-life", "h", 2.43]
]}

---

Test: Cmax in Sprague-Dawley rat at 10 mg/kg, po measured after 48 hrs by LC-MS/MS analysis
Type: ADME, organism-based
Parameters: route oral, dose 10 mg/kg, time 48 hrs
Experimental Context: in vivo

{"columns": ["Chemical Structure", "Cmax / ng/mL"],
 "data": [
  ["CC#CCn1c(N2CCC[C@@H](N)C2)cc(=O)n(Cc2cc(C(=O)OC)ccc2Cl)c1=O", 3190]
]}

---

Test: AUC (0 to infinity) in Sprague-Dawley rat at 10 mg/kg, po measured after 48 hrs by LC-MS/MS analysis
Format: ADME, organism-based
Parameters: route oral, dose 10 mg/kg, time 48 hrs
Experimental Context: in vivo
Readout Kind: AUC(0-inf) (ng·h/mL)

{"columns": ["Chemical Structure", "Unit Spec", "Data Value"],
 "data": [
  ["CC#CCn1c(N2CCC[C@@H](N)C2)cc(=O)n(Cc2cc(C(=O)OC)ccc2Cl)c1=O", "ng·h/mL", 26800]
]}

---

Target Or System: Dipeptidyl peptidase 9 (Homo sapiens, UniProt Q86TI2)
Sequence (Q86TI2 whole entry): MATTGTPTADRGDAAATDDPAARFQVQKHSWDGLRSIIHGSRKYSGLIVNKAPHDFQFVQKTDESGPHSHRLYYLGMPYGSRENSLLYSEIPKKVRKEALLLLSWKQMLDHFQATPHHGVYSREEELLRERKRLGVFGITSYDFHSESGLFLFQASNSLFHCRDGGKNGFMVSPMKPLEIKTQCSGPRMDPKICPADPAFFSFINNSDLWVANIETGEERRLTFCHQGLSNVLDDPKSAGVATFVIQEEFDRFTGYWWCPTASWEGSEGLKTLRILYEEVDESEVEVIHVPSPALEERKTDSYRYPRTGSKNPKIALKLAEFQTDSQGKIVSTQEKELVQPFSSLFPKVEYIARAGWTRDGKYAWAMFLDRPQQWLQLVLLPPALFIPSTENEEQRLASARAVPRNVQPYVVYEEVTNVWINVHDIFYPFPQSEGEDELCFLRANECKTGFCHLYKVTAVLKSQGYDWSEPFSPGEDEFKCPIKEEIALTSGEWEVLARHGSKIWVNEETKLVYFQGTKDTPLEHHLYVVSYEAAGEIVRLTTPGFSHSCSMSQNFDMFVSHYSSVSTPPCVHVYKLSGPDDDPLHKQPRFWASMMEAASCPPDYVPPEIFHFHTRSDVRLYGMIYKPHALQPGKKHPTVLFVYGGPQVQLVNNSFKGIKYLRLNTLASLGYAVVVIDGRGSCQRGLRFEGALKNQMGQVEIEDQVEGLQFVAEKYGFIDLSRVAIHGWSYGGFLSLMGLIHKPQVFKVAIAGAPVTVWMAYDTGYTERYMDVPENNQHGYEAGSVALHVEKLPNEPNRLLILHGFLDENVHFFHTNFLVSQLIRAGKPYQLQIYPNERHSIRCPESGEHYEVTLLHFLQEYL
Test: Inhibition of human recombinant DPP9 using Gly-Pro-AMC as substrate preincubated for 15 mins followed by substrate addition and measured for 20 mins by fluorescence based microplate reader assay
Readout Kind: IC50

{"columns": ["Chemical Structure", "Data Value"],
 "data": [
  ["CC#CCn1c(N2CCC[C@@H](N)C2)cc(=O)n(Cc2cccc(C(=O)OC)c2F)c1=O", "> 100 µM"],
  ["CC#CCn1c(N2CCC[C@@H](N)C2)cc(=O)n(Cc2cc(Br)cc(C(=O)OC)c2)c1=O", "> 100 µM"],
  ["CC#CCn1c(N2CCC[C@@H](N)C2)cc(=O)n(Cc2cccc(C(=O)OC)c2Br)c1=O", "> 100 µM"],
  ["CC#CCn1c(N2CCC[C@@H](N)C2)cc(=O)n(Cc2cc(C(=O)O)ccc2Cl)c1=O", "> 100 µM"],
  ["CC#CCn1c(N2CCC[C@@H](N)C2)cc(=O)n(Cc2cc(Br)cc(C(=O)O)c2)c1=O", "> 100 µM"],
  ["CC#CCn1c(N2CCC[C@@H](N)C2)cc(=O)n(Cc2cc(C(=O)OC)ccc2Cl)c1=O", "> 100 µM"]
]}

---

Test: Cytotoxicity against human L02 cells assessed as cell viability up to 100 uM measured after 48 hrs by MTT assay relative to control
Type: cell-based
Experimental Context: read-out: Activity
Each entry below carries its reported viability at 48 h.
Readout Kind: viability at 48 h

{"columns": ["Chemical Structure", "Data Value"],
 "data": [
  ["CC#CCn1c(N2CCC[C@@H](N)C2)cc(=O)n(Cc2cc(C(=O)O)ccc2Cl)c1=O", "> 95%"],
  ["CC#CCn1c(N2CCC[C@@H](N)C2)cc(=O)n(Cc2cc(C(=O)OC)ccc2Cl)c1=O", "> 95%"]
]}

---

Test: Clearance in Sprague-Dawley rat at 10 mg/kg, po measured after 48 hrs by LC-MS/MS analysis
Assay type: ADME, organism-based
Experimental Context: in vivo

{"columns": ["Chemical Structure", "Unit Spec", "CL/F"],
 "data": [
  ["CC#CCn1c(N2CCC[C@@H](N)C2)cc(=O)n(Cc2cc(C(=O)OC)ccc2Cl)c1=O", "mL/min/kg", 9.17]
]}

---

Test: Tmax in Sprague-Dawley rat at 10 mg/kg, po measured after 48 hrs by LC-MS/MS analysis
Type: ADME, organism-based
Experimental Context: in vivo

{"columns": ["Chemical Structure", "Tmax, min"],
 "data": [
  ["CC#CCn1c(N2CCC[C@@H](N)C2)cc(=O)n(Cc2cc(C(=O)OC)ccc2Cl)c1=O", 22.8]
]}
